- experimentalTarget: human c-mpl-R (human, UniProt P40238)
- assayProtocol: cell-based or functional assay
parameterMeasured: Bone Marrow Proliferation Assay: Cells/Well after 10 Day Culture of CD34+ enriched cells (cells/well)

[
  {
    "binder": "1-332 c-mpl ligand P(46)L, W(200)R (pMON26451-4) (ligand) SPAPPACDLRVLSKLLRDSHVLHSRLSQCPEVHPLPTPVLLPAVDLSLGEWKTQMEETKAQDILGAVTLLLEGVMAARGQLGPTCLSSLLGQLSGQVRLLLGALQSLLGTQLPPQGRTTAHKDPNAIFLSFQHLLRGKVRFLMLVGGSTLCVRRAPPTTAVPSRTSLVLTLNELPNRTSGLLETNFTASARTTGSGLLKRQQGFRAKIPGLLNQTSRSLDQIPGYLNRIHELLNGTRGLFPGPSRRTLGAPDISSGTSDTGSLPPNLQPGYSPSPTHPPTPLLPDPSAPTPTPTSPLLNTSYTHSQNLSQEG",
    "reportedResult": 16000
  }
]
